molecular target: T1, KDR (kinase domain receptor, VEGFR-2) expressed on cells (UniProt P35968 20-1356, limits assumed); test: displacement of 125I-VEGF165 from CHO-KDR cells
T1 construct: whole, on cells; The same molecule is used for KDR on CHO-KDR cells and for VEGF-R2 on HUV-EC cells; the cells are named under assay; also called KDR/Flk-1; VR2
T1 sequence (P35968 20-1356 limits assumed): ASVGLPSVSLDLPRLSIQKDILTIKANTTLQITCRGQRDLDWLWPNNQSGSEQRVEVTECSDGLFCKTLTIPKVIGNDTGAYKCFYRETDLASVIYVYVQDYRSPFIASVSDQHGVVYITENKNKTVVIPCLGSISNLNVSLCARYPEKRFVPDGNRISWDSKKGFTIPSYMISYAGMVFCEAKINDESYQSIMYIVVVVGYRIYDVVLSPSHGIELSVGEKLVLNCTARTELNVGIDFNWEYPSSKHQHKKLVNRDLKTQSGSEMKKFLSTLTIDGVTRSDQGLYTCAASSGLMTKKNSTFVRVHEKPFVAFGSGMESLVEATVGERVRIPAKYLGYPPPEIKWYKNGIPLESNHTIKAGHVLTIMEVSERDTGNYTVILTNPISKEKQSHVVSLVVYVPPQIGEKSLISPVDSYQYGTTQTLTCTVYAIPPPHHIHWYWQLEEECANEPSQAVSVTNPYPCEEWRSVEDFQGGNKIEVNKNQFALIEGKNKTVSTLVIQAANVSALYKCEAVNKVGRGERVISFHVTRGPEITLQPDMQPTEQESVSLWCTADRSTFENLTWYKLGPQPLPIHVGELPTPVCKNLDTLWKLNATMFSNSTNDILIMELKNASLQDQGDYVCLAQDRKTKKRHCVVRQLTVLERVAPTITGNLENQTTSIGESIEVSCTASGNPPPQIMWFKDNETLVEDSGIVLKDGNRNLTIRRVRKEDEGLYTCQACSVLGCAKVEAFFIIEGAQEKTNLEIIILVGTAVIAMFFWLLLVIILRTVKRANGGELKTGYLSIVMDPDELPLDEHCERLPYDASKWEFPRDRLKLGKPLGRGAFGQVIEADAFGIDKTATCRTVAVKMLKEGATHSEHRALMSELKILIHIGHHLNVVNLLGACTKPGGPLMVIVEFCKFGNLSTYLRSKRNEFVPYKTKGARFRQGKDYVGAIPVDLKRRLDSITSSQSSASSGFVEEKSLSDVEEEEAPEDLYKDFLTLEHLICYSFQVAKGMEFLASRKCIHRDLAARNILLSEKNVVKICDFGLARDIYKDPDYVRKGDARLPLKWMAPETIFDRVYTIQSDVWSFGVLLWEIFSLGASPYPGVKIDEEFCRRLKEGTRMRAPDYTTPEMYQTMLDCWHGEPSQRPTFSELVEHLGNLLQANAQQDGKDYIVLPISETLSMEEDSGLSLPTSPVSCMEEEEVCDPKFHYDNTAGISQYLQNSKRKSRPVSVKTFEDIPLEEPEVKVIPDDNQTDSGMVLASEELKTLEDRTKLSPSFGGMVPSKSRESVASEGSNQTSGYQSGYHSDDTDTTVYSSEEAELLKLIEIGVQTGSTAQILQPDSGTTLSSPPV
Response field label: string, one of condition met (Efficiency (% Emax) strictly below 60 % Emax) or condition not met.

> print(dat)
                                     binder        group.label
1  ATWLAPR (Ala scan analogue of ATWLPPR (V1)) [V1 analogue A5]  condition not met
2  ATWLPPR (Synthetic peptide (Neosystem); also called V1 peptide) [synthetic peptide V1 (ATWLPPR)]  condition not met
3  ATALPPR (Ala scan analogue of ATWLPPR (V1)) [V1 analogue A3]  condition not met
4  ATWLPAR (Ala scan analogue of ATWLPPR (V1)) [V1 analogue A6]  condition not met

Could you now consider this next binder?
[in] Is it true that Efficiency (% Emax) reported for ATWAPPR (Ala scan analogue of ATWLPPR (V1)) [V1 analogue A4] is less than 60 % Emax?
[out] condition met
